system: Acinetobacter baumannii; assay: Antibacterial activity against Acinetobacter baumannii ATCC 19606 assessed as inhibition of bacterial growth incubated for 24 hrs by broth dilution assay; type: functional
measurementName: MIC (µg/mL)
Please state the figure in µg/mL; there is no need to write the unit.

Answered examples (8):
• H-KRIVKRIKRFLR-OH = 80
• H-KRIVIRIKDFLR-OH = 160
• H-KRIVQRIKIFLR-OH = 40
• H-KRIVRRIKIFLR-OH = 10
• H-KRIVKRIKKFLR-OH = 160
• H-KRIVKRIKDFLR-OH = 160
• H-KRIVQRIKRFLR-OH = 160
• H-KRIVRRIKKFLR-OH = 80

Dear colleague, I am looking for the recorded MIC of the following substance: H-KRIVQRIKKFLR-OH
80

Another: H-KRIVKRIKIFLR-OH
20

Another: H-KRIVIRIKIFLR-OH
20

Another: H-KRIVRRIKDFLR-OH
320

Another: H-KRIVIRIKKFLR-OH
80

Another: H-KRIVIRIKRFLR-OH
20

Another: H-KRIVRRIKRFLR-OH
320

----------
system: Staphylococcus aureus; assay: Antibacterial activity against Staphylococcus aureus […] assessed as inhibition of bacterial growth incubated for 24 hrs by broth dilution assay; type: functional
Positions of bridges follow the written chain, without caps; N, C: chain ends. Non-standard residues stand in square brackets, D forms with d. Residues, ends and D or L forms follow the SMILES beside them. S5 = C=CCCC[C@](C)(N)C(=O)O
measurementName: MIC

Answered examples (4):
* CC[C@H](C)[C@H](NC(=O)[C@H](CCCCN)NC(=O)[C@@H](NC(=O)[C@]1(C)CCC/C=C\CCC[C@](C)(NC(=O)[C@@H](N)CCCCN)C(=O)N[C@@H]([C@@H](C)CC)C(=O)N[C@@H](C(C)C)C(=O)N[C@@H](CCCNC(=N)N)C(=O)N1)[C@@H](C)CC)C(=O)N[C@@H](Cc1ccccc1)C(=O)N[C@@H](CC(C)C)C(=O)N[C@@H](CCCNC(=N)N)C(=O)O (H-K[S5]IVR[S5]IKIFLR-OH; staple (Z) 2-6) | 320 µg/mL
* CC[C@H](C)[C@@H]1NC(=O)[C@H](CCCNC(=N)N)NC(=O)[C@H](CCCNC(=N)N)NC(=O)[C@H](C(C)C)NC(=O)[C@H]([C@@H](C)CC)NC(=O)[C@@](C)(NC(=O)[C@@H](N)CCCCN)CCC/C=C\CCC[C@@](C)(C(=O)N[C@@H](Cc2ccccc2)C(=O)N[C@@H](CC(C)C)C(=O)N[C@@H](CCCNC(=N)N)C(=O)O)NC(=O)[C@H](CCCCN)NC1=O (H-K[S5]IVRRIK[S5]FLR-OH; staple (Z) 2-9) | > 320 µg/mL
* CC[C@H](C)[C@H](NC(=O)[C@H](CCCCN)NC(=O)[C@]1(C)CCC/C=C\CCC[C@](C)(NC(=O)[C@H](CCCNC(=N)N)NC(=O)[C@@H](N)CCCCN)C(=O)N[C@@H](C(C)C)C(=O)N[C@@H](CCCNC(=N)N)C(=O)N[C@@H](CCCNC(=N)N)C(=O)N1)C(=O)N[C@@H](Cc1ccccc1)C(=O)N[C@@H](CC(C)C)C(=O)N[C@@H](CCCNC(=N)N)C(=O)O (H-KR[S5]VRR[S5]KIFLR-OH; staple (Z) 3-7) | 160 µg/mL
* CC[C@H](C)[C@H](NC(=O)[C@H](CCCNC(=N)N)NC(=O)[C@@H](N)CCCCN)C(=O)N[C@@]1(C)CCC/C=C\CCC[C@@](C)(C(=O)N[C@H](C(=O)N[C@@H](Cc2ccccc2)C(=O)N[C@@H](CC(C)C)C(=O)N[C@@H](CCCNC(=N)N)C(=O)O)[C@@H](C)CC)NC(=O)[C@H]([C@@H](C)CC)NC(=O)[C@H](CCCNC(=N)N)NC(=O)[C@H](CCCNC(=N)N)NC1=O (H-KRI[S5]RRI[S5]IFLR-OH; staple (Z) 4-8) | 80 µg/mL

Switching to the query record.
Dear colleague, I am looking for the recorded MIC of the following compound: CC[C@H](C)[C@@H]1NC(=O)[C@H](CCCNC(=N)N)NC(=O)[C@H](CCCNC(=N)N)NC(=O)[C@@](C)(NC(=O)[C@@H](NC(=O)[C@H](CCCNC(=N)N)NC(=O)[C@@H](N)CCCCN)[C@@H](C)CC)CCC/C=C\CCC[C@@](C)(C(=O)N[C@@H](CCCNC(=N)N)C(=O)O)NC(=O)[C@H](Cc2ccccc2)NC(=O)[C@H]([C@@H](C)CC)NC(=O)[C@H](CCCCN)NC1=O (H-KRI[S5]RRIKIF[S5]R-OH; staple (Z) 4-11)
> 320 µg/mL
